tested on: MJ; test: Tumor Cell Proliferation Assay; format: cell-based; details: CTCL (Unknown), 72 hr
OBSERVABLE: IC50

So, C=CC(=O)Nc1cccc(-c2cnc3[nH]cc(C(=O)NC(C)(C)C)c3n2)c1 ? Its IC50 was > 5 µM

###

system: Hut-102; test: Tumor Cell Proliferation Assay; type: cell-based; conditions: Hut-102, CTCL (Mycosis fungoides); 72 hr
OBSERVABLE: pIC50
By convention, pIC50 is the negative base-10 log of a molar concentration.

So, C=CC(=O)Nc1cccc(-c2cnc3[nH]cc(C(=O)NC(C)(C)C)c3n2)c1 ? Its pIC50 was 6.98

###

system: H9; assay: Tumor Cell Proliferation Assay; type: cell-based; conditions: Homo sapiens; H9, CTCL (Sézary syndrome); 72 hr
OBSERVABLE: IC50 (nM)
Answer in nM, number only, no unit symbol.

So, C=CC(=O)Nc1cccc(-c2cnc3[nH]cc(C(=O)NC(C)(C)C)c3n2)c1 [Compound 2] ? Its IC50 was 450
